Source of measurements: ChEMBL document CHEMBL4513216

# procedure text: Toxicity liver stage against HepG2, at 10uM
# Type: cell-based
# Set-up: test concentration 10 uM, cell line HepG2-A16-CD81EGFP
# condition set: human, HepG2-A16-CD81EGFP cells; read-out: INHIBITION
value kind: cytotoxicity at 10 µM (%)
Answers are plain numbers, in %.

molecule	value kind	reported value
O=C(NC1CCCN(c2ccccc2Cl)C1)c1c[nH]nn1 (stereo unspecified)	cytotoxicity at 10 µM	-1.58

Batch of 5 molecules: report cytotoxicity at 10 µM for each.
1. O=C1N(Cc2ccc(F)c(F)c2)CCCC12CCN(C1CCSCC1)C2 (stereo unspecified)
2. O=C(c1ccn(-c2ccc(F)cc2)n1)N(CCO)Cc1cccnc1
3. CCn1cc(CN2CCCn3nc(CNC(=O)N(C)C)cc3C2)cn1
4. CCOCC(O)CN1CCN(C(=O)c2ccc(OC)cc2)CC1 (stereo unspecified)
5. Cc1noc(C)c1CN(C)CC(c1cccs1)N1CCOCC1 (stereo unspecified)

-19.1
17.5
6.99
5.22
-4.98

The following molecules each have a reported value; give each one's cytotoxicity at 10 µM.
1. CCn1nc(C)c2nnn(CC(=O)Nc3cccc(Cl)c3)c(=O)c21
2. Cc1cc(C(=O)N(CCN(C)C)Cc2ccc(Cl)cc2)no1
3. Cc1ccc(C(=O)N2C[C@@H]3[C@@H](C2)OCC(=O)N3Cc2cccnc2)o1
4. CC(=O)Nc1cc(CN(C)C)ccc1C
5. Cn1cnnc1-c1ccnc(NCc2ccc3c(c2)OCCO3)c1

[4.47, 0.242, 3.8, -1.89, -11]
